target: glutathione-S-transferase (GST) tagged LXRalpha LBD (ligand binding domain) (Homo sapiens); assay: LanthaScreen TR-FRET Liver X Receptor Coactivator Assay, LXR alpha-LBD; details: potency (Inflection Point) of co-activator recruitment, TR-FRET; read-out: LXR alpha IP
Sequence (Q13133 209-447 limits assumed): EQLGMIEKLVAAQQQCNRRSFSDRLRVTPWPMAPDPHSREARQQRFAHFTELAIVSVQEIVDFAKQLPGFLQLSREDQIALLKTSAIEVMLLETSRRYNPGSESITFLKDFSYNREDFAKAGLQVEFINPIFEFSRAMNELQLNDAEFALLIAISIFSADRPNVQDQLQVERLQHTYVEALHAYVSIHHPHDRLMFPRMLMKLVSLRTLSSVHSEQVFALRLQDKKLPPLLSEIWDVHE
Listing: EC50 of selected molecules
reported.endpoint: EC50 (µM)

[[record]]
molecule = "CN(C)C(=O)c1ccc(-c2cnc(N3CCN(C(=O)OCc4ccccc4Cl)CC3)c(C#N)c2)cc1Cl [Example 3-9]"
value_reported = 8.9

[[record]]
molecule = "CN(CCn1ccnc1)C(=O)c1ccc(-c2cnc(N3CCN(C(=O)OC(C)(C)C)CC3)c(C#N)c2)cc1Cl [Example 5-21]"
value_reported = 9.24

[[record]]
molecule = "CN(C)NC(=O)c1ccc(-c2cnc(N3CCN(C(=O)OC(C)(C)C)CC3)c(C#N)c2)cc1Cl [Example 5-6]"
value_reported = 8.78

[[record]]
molecule = "CN(C)C(=O)c1ccc(-c2cnc(N3CCN(C(=O)C4(c5ccc(Cl)cc5Cl)CC4)CC3)c(C#N)c2)cc1Cl [Example 2-34]"
value_reported = 12.7

[[record]]
molecule = "CC(C)(C)OC(=O)N1CCN(c2ncc(-c3ccc(C(=O)N4CCOCC4)c(Cl)c3)cc2C#N)CC1 [Example 5-14]"
value_reported = 12.6

